Measured drug sensitivity score of individual entries
Tested on: MDA-MB-468
Experiment: drug sensitivity score (DSS), CellTiter-Blue viability (DSS (AUC-based score)); higher = stronger viability inhibition; extreme values may be limits of the assay
Conditions: incubation time: 72 h

{"compound": "COc1cc2c(cc1O)CC[C@@H]1[C@@H]2CC[C@]2(C)[C@@H](O)CC[C@@H]12", "drug sensitivity score": 2.79}
{"compound": "CC[C@@H]1C(=O)OC[C@@H]1Cc1cncn1C", "drug sensitivity score": 0}
{"compound": "O=NN(CCCl)C(=O)NCCCl", "drug sensitivity score": 0}
{"compound": "C[C@]1(O)C[C@@H](c2nc(-c3ccc4ccc(-c5ccccc5)nc4c3)c3c(N)nccn32)C1", "drug sensitivity score": 0}
{"compound": "CC1=C2C[C@H]3[C@@H](CC=C4C[C@@H](O)CC[C@@]43C)[C@@H]2CC[C@]12O[C@@H]1C[C@H](C)CN[C@H]1[C@H]2C", "drug sensitivity score": 0}
{"compound": "Cc1sc2c(c1C)C(c1ccc(Cl)cc1)=N[C@@H](CC(=O)OC(C)(C)C)c1nnc(C)n1-2 [(+)JQ1]", "drug sensitivity score": 5.95}
{"compound": "CC1(C)CNc2cc(NC(=O)c3cccnc3NCc3ccncc3)ccc21", "drug sensitivity score": 0}

---

System: CAL-51
Test: normalised viability (% of control), CellTiter-Blue; higher = more viable cells (about 100 = DMSO control)
Conditions: 100 nM; incubation time: 72 h
// reported normalised viability for each item listed

{"structureSmiles": "CC1(C)CNc2cc(NC(=O)c3cccnc3NCc3ccncc3)ccc21", "normalised viability [%]": 97.2}
{"structureSmiles": "Cn1cnc2c(F)c(Nc3ccc(Br)cc3Cl)c(C(=O)NOCCO)cc21", "normalised viability [%]": 96.3}
{"structureSmiles": "Nc1ncn([C@@H]2O[C@H](CO)[C@@H](O)[C@H]2O)c(=O)n1", "normalised viability [%]": 104}
{"structureSmiles": "O=P(O)(O)C(O)(Cn1ccnc1)P(=O)(O)O", "normalised viability [%]": 102}
{"structureSmiles": "COc1cc(F)c(F)c(Nc2ccc(I)cc2F)c1NS(=O)(=O)C1(C[C@H](O)CO)CC1", "normalised viability [%]": 81.2}

---

System: HCC1143
Test: normalised viability (% of control), CellTiter-Blue; higher = more viable cells (about 100 = DMSO control)
Details: 10 nM; incubation time: 72 h
Recorded normalised viability by entry
quantityName: normalised viability (%)

{"compound": "Cn1cc(C2=Nc3cc(NC(=O)C(N)C4CCCCC4)cc4c3C2=CNNC4=O)cn1 (centres undefined)", "quantityName": "normalised viability", "measurement": 85.5}
{"compound": "CC1=C2C[C@H]3[C@@H](CC=C4C[C@@H](O)CC[C@@]43C)[C@@H]2CC[C@]12O[C@@H]1C[C@H](C)CN[C@H]1[C@H]2C", "quantityName": "normalised viability", "measurement": 96}
{"compound": "CC1(C)CNc2cc(NC(=O)c3cccnc3NCc3ccncc3)ccc21", "quantityName": "normalised viability", "measurement": 79.9}
{"compound": "Nc1ncn([C@@H]2O[C@H](CO)[C@@H](O)[C@H]2O)c(=O)n1", "quantityName": "normalised viability", "measurement": 72.6}

---

Tested on: BT-474
Test: normalised viability (% of control), CellTiter-Blue; higher = more viable cells (about 100 = DMSO control)
Conditions: 10 nM; incubation time: 72 h
Recorded normalised viability for the following compounds
quantityName: normalised viability (%)

{"compound": "O=C1CN2Cc3c(ccc(Cl)c3Cl)N=C2N1 [Anagrelide]", "quantityName": "normalised viability", "measurement": 126}
{"compound": "Cn1cnc2c(F)c(Nc3ccc(Br)cc3Cl)c(C(=O)NOCCO)cc21", "quantityName": "normalised viability", "measurement": 104}
{"compound": "COc1cc2c(cc1O)CC[C@@H]1[C@@H]2CC[C@]2(C)[C@@H](O)CC[C@@H]12", "quantityName": "normalised viability", "measurement": 133}
{"compound": "CC(=O)c1c(C)c2cnc(Nc3ccc(N4CCNCC4)cn3)nc2n(C2CCCC2)c1=O", "quantityName": "normalised viability", "measurement": 108}
{"compound": "CC1=C2C[C@H]3[C@@H](CC=C4C[C@@H](O)CC[C@@]43C)[C@@H]2CC[C@]12O[C@@H]1C[C@H](C)CN[C@H]1[C@H]2C", "quantityName": "normalised viability", "measurement": 135}
{"compound": "Nc1ncn([C@@H]2O[C@H](CO)[C@@H](O)[C@H]2O)c(=O)n1", "quantityName": "normalised viability", "measurement": 104}
{"compound": "C[C@]1(O)C[C@@H](c2nc(-c3ccc4ccc(-c5ccccc5)nc4c3)c3c(N)nccn32)C1", "quantityName": "normalised viability", "measurement": 102}
